Ref: patent US8846653B2

Tested on: MiaPaCa-2 cells
Test: MTT assay of MiaPaCa2 cultures, single 50 μM dose
Type: cell-based, human
Settings: MiaPaCa2, 50 μM, 48 hours, run 6
For each record, write down the corresponding MTT assay result, run 6.
The reply should be a number, written without any unit.

GET /values?readout=MTT assay result, run 6&item= Cc1c(C)c2c(c(C)c1OC(=O)CCC(=O)O)CC[C@@](C)(CCC[C@H](C)CCC[C@H](C)CCCC(C)C)O2 [TS, tocopherol succinate] 0.19

GET /values?readout=MTT assay result, run 6&item= CC(C)=CCC/C(C)=C/CC/C(C)=C/CC[C@]1(C)CCc2cc(O)cc(C)c2O1 [T3 delta, delta tocotrienol] 0.239

GET /values?readout=MTT assay result, run 6&item= CC(C)=CCC/C(C)=C/CC/C(C)=C/CC[C@]1(C)CCc2cc(O)c(C)c(C)c2O1 [T3 gamma, gamma tocotrienol] 0.141

GET /values?readout=MTT assay result, run 6&item= CC(C)=CCC/C(C)=C/CC/C(C)=C/CC[C@]1(C)CCc2c(C)c(O)cc(C)c2O1 [T3 beta, beta tocotrienol] 0.219

GET /values?readout=MTT assay result, run 6&item= Cc1c(O)cc2c(c1C)O[C@](C)(CCC[C@H](C)CCC[C@H](C)CCCC(C)C)CC2 [T gamma] 0.328

GET /values?readout=MTT assay result, run 6&item= O=C(O)CCC(=O)O [SA, succinic acid] 0.262

GET /values?readout=MTT assay result, run 6&item= CC(C)=CCC/C(C)=C/CC/C(C)=C/CC/C(C)=C/CO [GG, geranylgeraniol] 0.317

GET /values?readout=MTT assay result, run 6&item= Cc1c(C)c2c(c(C)c1O)CC[C@@](C)(CCC[C@H](C)CCC[C@H](C)CCCC(C)C)O2 [T alpha, alpha tocopherol] 0.297
